target: Hypoxia-inducible factor 1-alpha (Homo sapiens) (UniProt Q16665); assay: HIF-2a and HIF-1a reporter inhibition panel, dose response, selectivity assay for HIF-2a inhibitor project, cell-based, luminescence (AID 651581); conditions: HIF-1a, mean of runs
Sequence (Q16665 whole entry, looked up): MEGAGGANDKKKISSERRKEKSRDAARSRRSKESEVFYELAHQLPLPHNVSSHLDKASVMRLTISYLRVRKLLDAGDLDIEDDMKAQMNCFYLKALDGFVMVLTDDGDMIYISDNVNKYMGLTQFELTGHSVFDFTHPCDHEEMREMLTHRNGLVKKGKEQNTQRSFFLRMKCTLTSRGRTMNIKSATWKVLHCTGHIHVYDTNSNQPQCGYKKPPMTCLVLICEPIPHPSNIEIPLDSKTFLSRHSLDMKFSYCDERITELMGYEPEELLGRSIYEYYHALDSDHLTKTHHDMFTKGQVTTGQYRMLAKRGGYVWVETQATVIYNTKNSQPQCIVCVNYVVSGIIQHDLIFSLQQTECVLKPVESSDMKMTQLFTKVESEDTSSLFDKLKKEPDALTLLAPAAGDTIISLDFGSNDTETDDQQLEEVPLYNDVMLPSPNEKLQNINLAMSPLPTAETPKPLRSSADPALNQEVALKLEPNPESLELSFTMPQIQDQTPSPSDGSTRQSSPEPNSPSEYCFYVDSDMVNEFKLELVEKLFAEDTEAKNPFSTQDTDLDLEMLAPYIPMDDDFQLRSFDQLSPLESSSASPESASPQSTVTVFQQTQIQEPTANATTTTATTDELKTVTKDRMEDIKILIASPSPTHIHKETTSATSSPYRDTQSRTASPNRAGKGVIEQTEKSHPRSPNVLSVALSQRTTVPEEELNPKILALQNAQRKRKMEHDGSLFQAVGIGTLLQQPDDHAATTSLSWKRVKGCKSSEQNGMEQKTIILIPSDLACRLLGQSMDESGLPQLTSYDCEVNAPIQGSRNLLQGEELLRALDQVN
Calls of active or inactive are those of the source. The rule behind the calls is not given here.
Quantity Measured: IC50

                                    compound  quantity_measured           obs_value
 0  CCN(CC)CCCC(C)n1c2nc(=O)[nH]c(=O)c-2nc2cc(Cl)ccc21 (stereo not given)               IC50            inactive
 1  O=C(Nc1ccc(Cl)cc1Cl)c1cccc(N2C(=O)C=CC2=O)c1               IC50             41.1 µM
 2  CC(C)(C)c1ccc(-c2noc(CCC(=O)Nc3cccnc3)n2)cc1               IC50             64.2 µM
 3  CC(=O)Nc1ccc(NC(=O)c2oc3cc(C)c(C)cc3c2C)cc1               IC50            inactive
 4              O=C(O)c1cccc(COc2ccccc2Cl)c1               IC50             21.2 µM
 5  Cc1nnnn1/C(=C\c1ccccc1)C(=O)OCC(=O)Nc1cccc(S(=O)(=O)N(C)C)c1               IC50            inactive
 6            COc1ccc(OCc2cccc(C(=O)O)c2)cc1               IC50             26.3 µM
 7    Cc1ccc(Oc2ccc(OCC(=O)Nc3ccncc3)cc2)cc1               IC50            inactive
 8  COc1ccc(C(=O)/C=C/C(=O)N(CC(=O)NCCC(C)C)Cc2cccs2)c(O)c1               IC50             12.8 µM
 9  COc1cccc(NC(=O)c2nc(S(C)(=O)=O)ncc2Cl)c1               IC50            inactive
10                      N=c1nc(SCCC(=O)O)ss1               IC50            inactive
11              C(=NNc1ccc2ccccc2n1)c1ccccn1               IC50             23.5 µM
12  CCOC(=O)Cc1csc(NC(=S)NC(=O)c2ccc([N+](=O)[O-])cc2)n1               IC50               51 µM
13     COCCn1c(C)cc(C(=O)CSc2nnc3ccccn23)c1C               IC50             27.5 µM
14  CCOC(=O)Cc1csc(NC(=S)NC(=O)c2ccc(F)cc2)n1               IC50             12.9 µM
15             O=C(c1ccccc1)N1CCSc2sccc2C1=O               IC50             56.4 µM
16   Cc1cccc(NC(=S)NNc2ncc(C(F)(F)F)cc2Cl)c1               IC50             30.1 µM
17        COC(=O)CSc1nnc(-c2sc3ccccc3c2Cl)o1               IC50            inactive
18  Cc1nc2cc(-c3cccc(F)c3)nn2c(C)c1CCC(=O)NC(C)c1ccc2c(c1)OCCO2 (stereo not given)               IC50             18.6 µM
19            COc1ccc(/C=N\n2nnc3ccccc32)cc1               IC50  < 30 µM (inactive)
20      C/C(=N\NC(=O)c1n[nH]c2c1CCC2)c1cccs1               IC50            inactive
21           COc1cccc(C(=O)C(C#N)=C(SC)SC)c1               IC50             18.2 µM
22          Cc1ccc(/C=N/Nc2cccc(C(=O)O)c2)s1               IC50  > 99 µM (inactive)
23     O=C1C=C(c2ccc(Cl)cc2)C(=O)N1Nc1ccccc1               IC50             25.8 µM
24   O=C(c1ccccc1)c1cc(Cl)ccc1N1C(=O)C=CC1=O               IC50             58.4 µM
25  CCOc1ccc2nc(SCc3ccc(CC(=O)O)cc3)c(C#N)cc2c1               IC50             24.6 µM
26      O=C(O)c1ccc(N/N=C/c2ccc3ncccc3c2)cc1               IC50            inactive
27             Cc1csc(NC(=O)c2cn3ccccc3n2)n1               IC50            inactive
28       CC(=O)c1ccc(NC(=O)c2cnn3ccccc23)cc1               IC50            inactive
29  CCOC(=O)C1CCN(Cc2cc(=O)oc3c(C)c(C)ccc23)CC1               IC50             28.8 µM
